Data origin: patent US20210070748A1

Biological target: ITK (Homo sapiens)
Sequence (Q08881 whole entry): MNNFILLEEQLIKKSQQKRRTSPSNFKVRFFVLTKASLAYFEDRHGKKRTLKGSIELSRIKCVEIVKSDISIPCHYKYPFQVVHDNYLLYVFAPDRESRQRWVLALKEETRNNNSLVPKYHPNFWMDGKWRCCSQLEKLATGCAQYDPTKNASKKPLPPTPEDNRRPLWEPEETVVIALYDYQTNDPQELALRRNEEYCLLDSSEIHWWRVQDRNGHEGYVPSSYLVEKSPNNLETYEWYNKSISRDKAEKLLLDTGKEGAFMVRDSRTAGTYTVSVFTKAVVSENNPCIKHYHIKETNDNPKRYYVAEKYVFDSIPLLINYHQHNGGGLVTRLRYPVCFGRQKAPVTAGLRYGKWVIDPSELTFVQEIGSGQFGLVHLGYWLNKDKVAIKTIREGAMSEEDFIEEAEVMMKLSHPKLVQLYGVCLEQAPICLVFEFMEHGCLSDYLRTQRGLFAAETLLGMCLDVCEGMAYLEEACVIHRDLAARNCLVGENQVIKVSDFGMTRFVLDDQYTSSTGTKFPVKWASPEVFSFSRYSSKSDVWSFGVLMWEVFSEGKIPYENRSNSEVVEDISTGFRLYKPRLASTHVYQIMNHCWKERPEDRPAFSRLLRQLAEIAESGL
Test: Inhibition of a panel of kinases, in vitro HotSpot kinase assay: ITK
Format: biochemical
Conditions: Table 15, C compounds; 1 μM ATP
pIC50: −log10 of the molar value.
OBSERVED PROPERTY: pIC50

>>> df
                                        smi  observed_property  result
0  C=CC(=O)N1CCC[C@@H](Nc2nnc(C(N)=O)c(Nc3ccc(C4(C#N)CCCC4)cc3)n2)C1              pIC50  ≥ 8.00

Now examine the next entry.
Task item: Find the measured pIC50: item `C=CC(=O)N1CCC[C@@H](Nc2nnc(C(N)=O)c(Nc3ccc(I)cc3)n2)C1` , target or system ITK (Homo sapiens).
Reply: 7.00 to 8.00
